Exercise: state measured Follow-up HTS Run mOD for each of the molecules provided.
# Test system: Caenorhabditis elegans
# TEST_METHOD_NOTES: Follow-up HTS Run (mOD, % Run, visual score)
# REPORTED_CONDITIONS: in vivo
Response body: numeric value in mOD, unit text excluded.

Form field: reported Follow-up HTS Run mOD of CCCCCCCCS(=O)(=O)N1CCN(C(=O)c2cc(C(F)(F)F)cc(C(F)(F)F)c2)CC1C(=O)NCc1ccccc1 (stereo not drawn)
203

Form field: reported Follow-up HTS Run mOD of `CC(C)(C)c1csc(NC(=O)Cc2cn(Cc3cccnc3)c3ccc(Cl)cc23)n1`
179

Form field: reported Follow-up HTS Run mOD of `CC(C)(C)c1csc(NC(=O)Cc2cn(Cc3ccccc3Cl)c3ccc(Cl)cc23)n1`
174

Form field: reported Follow-up HTS Run mOD of COc1ccc(CC(=O)N2CCN(S(=O)(=O)c3ccc(OC)c(OC)c3)C(C(=O)NCc3cc(C(F)(F)F)cc(C(F)(F)F)c3)C2)cc1OC (stereo not drawn)
217

Form field: reported Follow-up HTS Run mOD of CC(C)(C)c1csc(NC(=O)CC2CCCc3ccccc32)n1 (stereo not drawn)
159

Form field: reported Follow-up HTS Run mOD of CCCCCCCCS(=O)(=O)N1CCN(C(=O)C=Cc2cccc(C(F)(F)F)c2)CC1C(=O)NCc1ccccc1C(F)(F)F (stereo not drawn)
172

Form field: reported Follow-up HTS Run mOD of `Cc1cccc2scc(CC(=O)Nc3nc(C(C)(C)C)cs3)c12`
223

Form field: reported Follow-up HTS Run mOD of CC(=O)Nc1ccc(S(=O)(=O)N2CCN(C(=O)c3cc(C(F)(F)F)cc(C(F)(F)F)c3)CC2C(=O)NCc2ccccc2)cc1 (stereo not drawn)
219

Form field: reported Follow-up HTS Run mOD of CCCCCCCCS(=O)(=O)N1CCN(C(=O)C=Cc2cccc(C(F)(F)F)c2)CC1C(=O)NCc1ccc(C(F)(F)F)cc1 (stereo not drawn)
179

The values you see were collected from patent US20020016330A1.
